Test target: Anoctamin-1 (Mus musculus) (UniProt Q8BHY3)
Sequence (Q8BHY3 whole entry, looked up): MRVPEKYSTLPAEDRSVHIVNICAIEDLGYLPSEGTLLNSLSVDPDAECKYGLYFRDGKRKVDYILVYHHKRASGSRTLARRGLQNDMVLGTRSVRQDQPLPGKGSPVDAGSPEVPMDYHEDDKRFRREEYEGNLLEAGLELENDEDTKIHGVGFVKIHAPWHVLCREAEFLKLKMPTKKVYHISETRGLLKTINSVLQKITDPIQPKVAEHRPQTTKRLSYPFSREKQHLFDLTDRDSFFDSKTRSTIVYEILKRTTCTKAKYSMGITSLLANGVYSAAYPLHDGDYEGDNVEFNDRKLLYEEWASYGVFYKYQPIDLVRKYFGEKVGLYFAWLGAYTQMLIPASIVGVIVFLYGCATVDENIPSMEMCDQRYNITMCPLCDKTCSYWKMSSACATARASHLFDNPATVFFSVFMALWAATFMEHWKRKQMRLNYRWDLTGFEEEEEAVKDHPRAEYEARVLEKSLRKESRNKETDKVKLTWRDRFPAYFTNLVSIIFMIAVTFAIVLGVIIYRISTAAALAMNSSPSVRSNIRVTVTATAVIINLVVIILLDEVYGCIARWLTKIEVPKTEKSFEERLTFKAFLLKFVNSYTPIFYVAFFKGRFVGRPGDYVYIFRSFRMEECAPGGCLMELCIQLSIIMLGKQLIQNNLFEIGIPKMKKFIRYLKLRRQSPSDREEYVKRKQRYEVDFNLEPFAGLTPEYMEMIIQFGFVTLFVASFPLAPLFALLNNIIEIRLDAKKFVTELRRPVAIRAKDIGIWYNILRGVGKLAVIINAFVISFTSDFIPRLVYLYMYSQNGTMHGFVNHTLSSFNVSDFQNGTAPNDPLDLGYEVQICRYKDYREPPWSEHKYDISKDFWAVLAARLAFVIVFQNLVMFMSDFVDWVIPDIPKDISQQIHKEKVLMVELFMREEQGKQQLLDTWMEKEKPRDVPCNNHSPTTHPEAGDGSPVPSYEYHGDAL
Assay explanation: mouse ANO1 channel activation – cell-based, HTS, primary screen (AID 623877)
Condition label: HEK293 TMEM16A/YFP-H148Q/I152L, iodide quench fluorescence, at 10 µM
In all, about 340,000 compounds went through this assay and about 1,000 (0.29%) were called active.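 The calls were made as follows: active = fluorescence-ratio B-score plate-corrected deviation score at least 3 library SD below zero, with starting fluorescence score within 5 deviations; inactive = the rest.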 The sample holds actives, similar compounds and a random draw of the others, so the mix is not that of the screen.
Outcomes: active, inactive

Compound	Test target	Assigned class
CCOC(=O)c1cc(NC(=O)SCC(=O)O)c(C)nc1C	Anoctamin-1 (Mus musculus) (UniProt Q8BHY3)	inactive
COc1ccc(OC)c(Nc2nc3ccccc3n3cnnc23)c1	Anoctamin-1 (Mus musculus) (UniProt Q8BHY3)	inactive
CCN(CC)S(=O)(=O)c1ccc(NC(=O)c2cccnc2Cl)c(NC(=O)c2cccnc2Cl)c1	Anoctamin-1 (Mus musculus) (UniProt Q8BHY3)	active
Cc1ccc(CNC(=O)c2cccnc2Cl)cc1	Anoctamin-1 (Mus musculus) (UniProt Q8BHY3)	inactive
CCOC(=O)CSc1nnc(CNC(=O)Cc2ccccc2)n1-c1ccccc1OC	Anoctamin-1 (Mus musculus) (UniProt Q8BHY3)	inactive
Cc1cc(=O)[nH]c(SCC(=O)Nc2ccc(Br)cc2)n1	Anoctamin-1 (Mus musculus) (UniProt Q8BHY3)	inactive

FYI, the data here is from PubChem BioAssay AID623877.
